Assign pKa to each entry below.
# Procedure text: Dissociation constant, pKa of the compound
# Assay type: physicochemical

Input: What value of pKa has been recorded for this entry: NCC(F)(F)CCC(N)C(=O)O (racemic)
Output: 6.88

Input: What value of pKa has been recorded for this entry: NCCSC[C@H](N)C(=O)O
Output: 9.52

Input: What value of pKa has been recorded for this entry: NCCCC[C@H](N)C(=O)O
Output: 10.6

Input: What value of pKa has been recorded for this entry: CC(C)(CN)CCC(N)C(=O)O (racemic)
Output: 10.2
